Below, each of the binders is paired with its reported residual binding, % of no competitor value.
biological target: T1, cMetECDHis (human, UniProt P08581 25-932, limits assumed, biotinylated in the cross-block ELISA of Example 17); assay: cross-block ELISA; competitor G11-HZ
T1 construct: Expressed in HEK-293F cells; also called soluble cMetECDHis; biotinylated cMetECDHis
Quantity Measured: residual binding, % of no competitor (%)

anti-c-Met HuMab 098 (IgG1) (antibody, V domains shown, also called TH1016-098; PC1016-098) VH: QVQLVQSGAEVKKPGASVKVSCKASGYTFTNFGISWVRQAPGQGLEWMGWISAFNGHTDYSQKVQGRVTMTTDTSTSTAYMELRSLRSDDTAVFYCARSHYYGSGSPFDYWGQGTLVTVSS VL: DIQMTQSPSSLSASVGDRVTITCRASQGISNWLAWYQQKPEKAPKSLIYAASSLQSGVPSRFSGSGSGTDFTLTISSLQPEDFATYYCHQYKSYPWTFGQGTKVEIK
99.6
IgG1-1016-022 (antibody, V domains shown, also called TH1016-022; PC1016-022) VH: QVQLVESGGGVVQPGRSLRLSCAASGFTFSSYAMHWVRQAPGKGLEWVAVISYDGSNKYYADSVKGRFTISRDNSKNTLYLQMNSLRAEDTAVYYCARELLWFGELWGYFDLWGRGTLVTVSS VL: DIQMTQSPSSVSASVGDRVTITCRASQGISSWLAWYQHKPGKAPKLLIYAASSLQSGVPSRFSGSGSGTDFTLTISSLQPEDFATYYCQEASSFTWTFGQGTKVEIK
85.9
anti-c-Met HuMab 008 (IgG1) (antibody, V domains shown, also called TH1016-008; PC1016-008) VH: EVQLVQSGAEVKKPGESLKISCKGSGYSFTSYWIGWVRQMPGKGLEWMGIIYPGDSETRYSPSFQGQVTISADKSISTAYLQWSSLKASDTAMYYCARQEITGEFDYWGQGTLVTVSS VL: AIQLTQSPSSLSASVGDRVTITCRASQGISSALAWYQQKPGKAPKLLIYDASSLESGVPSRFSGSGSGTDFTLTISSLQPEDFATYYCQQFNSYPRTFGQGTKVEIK
2.7
